- STATED_CONDITIONS: reversed-phase C18 HPLC column, logP^a, HPLC-MS method a)

| COMPOUND | chromatographic logP |
| --- | --- |
| CC(=O)NCc1cc(-c2cnn(-c3c(Cl)cc(C(F)(C(F)(F)F)C(F)(F)F)cc3Cl)c2)ccc1Cl | 4.13 |
| CCC(=O)NCc1cc(-c2cnn(-c3c(Cl)cc(C(F)(C(F)(F)F)C(F)(F)F)cc3SC)c2)ccc1F | 4.29 |
| CCC(=O)NCc1cc(-c2cnn(-c3c(Cl)cc(C(F)(C(F)(F)F)C(F)(F)F)cc3S(C)(=O)=O)c2)ccc1F | 3.65 |
| CC(=O)N(Cc1cc(-c2cnn(-c3c(Cl)cc(C(F)(C(F)(F)F)C(F)(F)F)cc3Cl)c2)ccc1Cl)C(C)=O | 5.14 |
| CCC(=O)NCc1cc(-c2cnn(-c3c(Cl)cc(C(F)(C(F)(F)F)C(F)(F)F)cc3[S+](C)[O-])c2)ccc1F (stereo not drawn) | 3.52 |
| O=C(NCc1cc(-c2cnn(-c3c(Cl)cc(C(F)(C(F)(F)F)C(F)(F)F)cc3Cl)c2)ccc1Cl)C1CC1 | 4.8 |
